Test system: H596 cells
assayExplanation: Cell viability assay (CCK8)
Assay type: cell-based
conditionInfo: Homo sapiens, NCI-H596, 72 h, three days treatment
IC50 strictly less than 3 µM = class 1. Otherwise class 0.

Consider the following illustrative entries.
compound="CC(C)c1cc(C(=O)N(C)Cc2ccc(C(=O)NCCCCC(=O)N3CCC(COc4cnc(-c5cccc(Cn6nc(-c7cccc(C#N)c7)ccc6=O)c5)nc4)CC3)cc2)c(O)cc1O [OZD-MET 11]" assignedlabel="class 0"
compound="CC(C)c1cc(C(=O)N(C)Cc2cccc(C(=O)NCCOCCOC(=O)N3CCC(COc4cnc(-c5cccc(Cn6nc(-c7cccc(C#N)c7)ccc6=O)c5)nc4)CC3)c2)c(O)cc1O [OZD-MET 10]" assignedlabel="class 0"
compound="CC(C)c1cc(C(=O)N(C)Cc2ccc(C(=O)NCCCCC(=O)Nc3ccc(-c4cnc5ncc(Cc6ccc7ncccc7c6)n5n4)cc3F)cc2)c(O)cc1O [OZD-MET 09]" assignedlabel="class 0"

Would you kindly look at the next entry?
Ask | Strictly below 3 µM: is that where IC50 of CC(C)c1cc(C(=O)N(C)Cc2ccc(C(=O)NCCCCC(=O)N3CCC(n4cc(-c5cnc(N)c(O[C@@H](C)c6c(Cl)ccc(F)c6Cl)c5)cn4)CC3)cc2)c(O)cc1O (stereo in doubt) [OZD-MET 03] sits?
Reply | class 1

* * *

Test system: H596 cells
assayExplanation: Cell viability assay (CCK8)
Type: cell-based
conditionInfo: Homo sapiens, NCI-H596, 72 h, three days treatment
Reported IC50 values are given for each entry in this list.
Reply with just the number (in µM).

Ask | Give its IC50 value. Item: CC(C)c1cc(C(=O)N(C)Cc2cccc(C(=O)NCCOCCOC(=O)Nc3ccc(-c4cnc5ncc(Cc6ccc7ncccc7c6)n5n4)cc3F)c2)c(O)cc1O
Reply | 3.08

Ask | Please report the recorded IC50 for CC(C)c1cc(C(=O)N(C)Cc2ccc(C(=O)NCCOCCOC(=O)N3CCC(n4cc(-c5cnc(N)c(O[C@@H](C)c6c(Cl)ccc(F)c6Cl)c5)cn4)CC3)cc2)c(O)cc1O .
Reply | 2.59

Ask | Would you kindly share the measured IC50 for CC(C)c1cc(C(=O)N(C)Cc2cccc(C(=O)NCCOCCOC(=O)n3cc(-c4cnc5nnn([C@@H](C)c6ccc7nccn7c6)c5n4)cn3)c2)c(O)cc1O ?
Reply | 4.18

Ask | I have this compound here, C[C@@H](Oc1cc(-c2cnn(C3CCNCC3)c2)cnc1N)c1c(Cl)ccc(F)c1Cl [Crizotinib, reference compound] , and I need its recorded IC50.
Reply | 20.3

Ask | Which value of IC50 has been reported for CC(C)c1cc(C(=O)N(C)Cc2cccc(C(=O)NCCOCCOC(=O)Nc3ccc4nccc(Oc5ccc(NC(=O)C6(C(=O)Nc7ccc(F)cc7)CC6)cc5)c4c3)c2)c(O)cc1O in the records?
Reply | 3.38

Ask | Consider the compound CC(C)c1cc(C(=O)N(C)Cc2ccc(C(=O)NCCCCC(=O)Nc3ccc4nccc(Oc5ccc(NC(=O)C6(C(=O)Nc7ccc(F)cc7)CC6)cc5)c4c3)cc2)c(O)cc1O and give its measured IC50.
Reply | 3.43
